test target: T1, NPY2 receptor (human (printed as hNPY2R), UniProt P49146 1-381)
T1 sequence (looked up): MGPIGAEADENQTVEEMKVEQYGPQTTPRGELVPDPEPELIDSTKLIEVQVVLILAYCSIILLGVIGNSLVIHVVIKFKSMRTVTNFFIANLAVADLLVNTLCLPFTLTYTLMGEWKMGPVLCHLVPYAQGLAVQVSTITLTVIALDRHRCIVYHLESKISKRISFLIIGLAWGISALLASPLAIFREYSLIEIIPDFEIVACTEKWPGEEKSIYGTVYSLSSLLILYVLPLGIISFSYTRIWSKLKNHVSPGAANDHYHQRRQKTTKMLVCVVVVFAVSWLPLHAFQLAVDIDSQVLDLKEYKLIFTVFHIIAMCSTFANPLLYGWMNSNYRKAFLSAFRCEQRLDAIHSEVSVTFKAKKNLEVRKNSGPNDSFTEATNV
procedure summary: cell-based or functional assay
Starred links: 1 amine or outer side, 2 acyl side, 3 side chain; linkers in the order of their positions; H or OH if unused. Non-standard residues stand in square brackets, D forms with d. Groups on a side chain read outwards from the residue. No end group written: not given here. *: point of attachment. C20 diacid = O=C(O)CCCCCCCCCCCCCCCCCCC(=O)*; γGlu = O=C(O)[C@H](CCC(=O)[*:2])N[*:1]; εLys = N[C@@H](CCCCN[*:1])C(=O)[*:2]; Aib = CC(C)(N)C(=O)O
EC50 hNPY2R 0.5% hP (CreLuc) by entry:

binder	scale unit	EC50 hNPY2R 0.5% hP (CreLuc)
Y[Aib]EGTFTSDYSI[Aib]LEKQAQ[Aib]AFIEWLIKGGPSEGASLRHYYNWLTRQRY-NH2 (not fully specified (residue 28); also: TFA salt) [Compound 258]	nM	22.3
Y[Aib]EGTFTSDYSI[Aib]LEKQAQ[Aib]EFVEWLIKGGPSSGASLRHYYNWLTRQRY-NH2 (not fully specified (residue 28); also: TFA salt) [Compound 198]	nM	13.1
Y[Aib]EGTFTSDYSI[Aib]LEKQAQ[Aib]AFVEWLIK([εLys-γGlu-γGlu-γGlu-γGlu-γGlu-C20 diacid])GGPEEGASLRHYYNWLTRQRY-NH2 (also: TFA salt) [Compound 230]	nM	15.4
Y[Aib]EGTFTSDYSI[Aib]LEKQAQ[Aib]AFVEWLIK([γGlu-γGlu-γGlu-γGlu-γGlu-γGlu-C20 diacid])GGPSSGASLRHYYNWLTRQRY-NH2 (also: TFA salt) [Compound 235]	nM	13.9
